Tested on: DU-145
assay-overview: Cytotoxicity against human DU145 cells after 48 hrs by SRB assay
Type: functional, cell-based
assay-conditions: Homo sapiens, DU-145, 48 h; read-out: GI50
quantity-kind: GI50 (nM)
Please give a number only; it is taken to be in nM.

Which GI50 reading was recorded for the molecule C/C=C1\NC(=O)[C@H](c2ccccc2)NC(=O)[C@@H](C(C)C)NC(=O)[C@@H]([C@H](C)CC)NC(=O)[C@H](NC(=O)[C@H](NC(=O)[C@H](CCCN)NC(=O)[C@H]2CCCN2C(=O)[C@H](NC(=O)[C@@H](NC(=O)[C@@H](NC(=O)[C@H](NC(=O)CCCC(C)C)C(C)C)[C@@H](C)O)C(C)C)C(C)C)[C@H](C)CC)[C@H](C)OC(=O)[C@H](C(C)C)NC1=O ?
872

Which GI50 reading was recorded for the molecule C/C=C1\NC(=O)[C@H](Cc2ccccc2)NC(=O)[C@@H](C(C)C)NC(=O)[C@@H]([C@H](C)CC)NC(=O)[C@H](NC(=O)[C@H](NC(=O)[C@H](CCCN)NC(=O)[C@H]2CCCN2C(=O)[C@H](NC(=O)[C@H](CCC2CCCCC2)NC(=O)[C@@H](NC(=O)[C@@H](CC2CCCCC2)NC(=O)CCCC(C)C)[C@@H](C)O)C(C)C)[C@H](C)CC)[C@H](C)OC(=O)[C@H](C(C)C)NC1=O ?
3300

Which GI50 reading was recorded for the molecule C/C=C1\NC(=O)[C@H](Cc2ccccc2)NC(=O)[C@@H](C(C)C)NC(=O)[C@@H]([C@H](C)CC)NC(=O)[C@H](NC(=O)[C@H](NC(=O)[C@H](CCCN)NC(=O)[C@H]2CCCN2C(=O)[C@H](NC(=O)[C@@H](NC(=O)[C@H](C)NC(=O)[C@H](NC(=O)CCCC(C)C)C(C)C)C(C)C)C(C)C)[C@H](C)CC)[C@H](C)OC(=O)[C@H](C(C)C)NC1=O ?
1420

Which GI50 reading was recorded for the molecule C/C=C1\NC(=O)[C@H](Cc2cccc(Cl)c2)NC(=O)[C@@H](C(C)C)NC(=O)[C@@H]([C@H](C)CC)NC(=O)[C@H](NC(=O)[C@H](NC(=O)[C@H](CCCN)NC(=O)[C@H]2CCCN2C(=O)[C@H](NC(=O)[C@@H](NC(=O)[C@@H](NC(=O)[C@H](NC(=O)CCCC(C)C)C(C)C)[C@@H](C)O)C(C)C)C(C)C)[C@H](C)CC)[C@H](C)OC(=O)[C@H](C(C)C)NC1=O ?
100

Which GI50 reading was recorded for the molecule CC[C@@H](C)[C@@H](NC(=O)[C@H](CCCN)NC(=O)[C@H]1CCCN1C(=O)[C@H](NC(=O)[C@@H](NC(=O)[C@@H](NC(=O)[C@H](NC(=O)CCCC(C)C)C(C)C)[C@@H](C)O)C(C)C)C(C)C)C(=O)N[C@H]1C(=O)N[C@H]([C@H](C)CC)C(=O)N[C@H](C(C)C)C(=O)N[C@@H](Cc2ccccc2)C(=O)N[C@H](CC)C(=O)N[C@@H](C(C)C)C(=O)O[C@H]1C ?
3260

Which GI50 reading was recorded for the molecule C/C=C1\NC(=O)[C@H](Cc2ccccc2)NC(=O)[C@@H](C(C)C)NC(=O)[C@@H]([C@H](C)CC)NC(=O)[C@H](NC(=O)[C@H](NC(=O)[C@H](CCCN)NC(=O)[C@H]2CCCN2C(=O)[C@H](NC(=O)[C@@H](NC(=O)[C@@H](NC(=O)[C@H](NC(=O)Cc2cc(F)cc(F)c2)C(C)C)[C@@H](C)O)C(C)C)C(C)C)[C@H](C)CC)[C@H](C)OC(=O)[C@H](C(C)C)NC1=O ?
1840

Which GI50 reading was recorded for the molecule C/C=C1\NC(=O)[C@H](Cc2ccc(Cl)cc2)NC(=O)[C@@H](C(C)C)NC(=O)[C@@H]([C@H](C)CC)NC(=O)[C@H](NC(=O)[C@H](NC(=O)[C@H](CCCN)NC(=O)[C@H]2CCCN2C(=O)[C@H](NC(=O)[C@@H](NC(=O)[C@@H](NC(=O)[C@H](NC(=O)CCCC(C)C)C(C)C)[C@@H](C)O)C(C)C)C(C)C)[C@H](C)CC)[C@H](C)OC(=O)[C@H](C(C)C)NC1=O ?
112

Which GI50 reading was recorded for the molecule C/C=C1\NC(=O)[C@H](Cc2ccccc2)NC(=O)[C@@H](C(C)C)NC(=O)[C@@H]([C@H](C)CC)NC(=O)[C@H](NC(=O)[C@H](NC(=O)[C@H](CCCN)NC(=O)[C@H]2CCCN2C(=O)[C@H](NC(=O)[C@@H](NC(=O)[C@H](CC(C)C)NC(=O)[C@H](NC(=O)CCCC(C)C)C(C)C)C(C)C)C(C)C)[C@H](C)CC)[C@H](C)OC(=O)[C@H](C(C)C)NC1=O ?
959

Which GI50 reading was recorded for the molecule C/C=C1\NC(=O)[C@H](Cc2c[nH]c3ccccc23)NC(=O)[C@@H](C(C)C)NC(=O)[C@@H]([C@H](C)CC)NC(=O)[C@H](NC(=O)[C@H](NC(=O)[C@H](CCCN)NC(=O)[C@H]2CCCN2C(=O)[C@H](NC(=O)[C@@H](NC(=O)[C@@H](NC(=O)[C@H](NC(=O)CCCC(C)C)C(C)C)[C@@H](C)O)C(C)C)C(C)C)[C@H](C)CC)[C@H](C)OC(=O)[C@H](C(C)C)NC1=O ?
832

Which GI50 reading was recorded for the molecule C/C=C1\NC(=O)[C@H](Cc2ccccc2)NC(=O)[C@@H](C(C)C)NC(=O)[C@@H]([C@H](C)CC)NC(=O)[C@H](NC(=O)[C@H](NC(=O)[C@H](CCCNC(=O)c2cc(F)c(F)c(F)c2F)NC(=O)[C@H]2CCCN2C(=O)[C@H](NC(=O)[C@@H](NC(=O)[C@@H](NC(=O)[C@H](NC(=O)CCCC(C)C)C(C)C)[C@@H](C)O)C(C)C)C(C)C)[C@H](C)CC)[C@H](C)OC(=O)[C@H](C(C)C)NC1=O ?
726
